Test system: A498 renal
measurement_protocol: NCI-60 one-dose screen, 48 h
condition_set: 10 µM unless noted
Compounds without any hit were thinned out: in the full panel of roughly 83,000, 20% have a hit. Active and inactive are the calls of the source. The calls were made as follows: active = growth percent below 10; inactive = the rest.
Respond using exactly one of the listed classes: T for active, F for inactive

Q: What did the test return for CCCS(=O)(=O)Nc1cccc(Nc2ncnc3cc(NC(=O)CCl)ccc23)c1Cl ?
A: T

Q: What did the test return for Cc1ccc(Nc2nc(N)nc(N)c2N=O)cc1Cl ?
A: F

Q: What did the test return for CC1=C([Se]CC(OC(=O)[C@@H](CO)NC(=O)OC(C)(C)C)C(=O)NCCCCCC(=O)OCc2ccccc2)C(=O)c2ccccc2C1=O (some centres not stated) ?
A: F

Q: What did the test return for CC1=NN(c2cccc(Cl)c2)C(=O)/C1=C\C=C\c1ccccc1 ?
A: F

Q: What did the test return for COc1ccc(/C(C)=C(\c2ccc(Cl)cc2)c2ccc(OCCCN(C)C)cc2)cc1 ?
A: F

***
Q: What did the test return for C=CCNc1ccc2c3c(cccc13)C(=O)N(CC=C)C2=O ?
A: F

Q: What did the test return for COc1cc(C2CC(c3cccc(Nc4ccncc4)c3)=Nc3c(N)ncnc3N2)cc(OC)c1OC (configuration not stated) ?
A: F

Q: What did the test return for Cc1ccc2nc(/C=C/c3ccc(N(C)C)cc3)cc(C)c2c1 ?
A: F

Q: What did the test return for CCOc1ccccc1NC(=O)CCC(=O)OC ?
A: F
